Ref: ChEMBL document CHEMBL1130312

- test_target: Retinoic acid receptor beta (Homo sapiens, UniProt P10826)
- Sequence (P10826 whole entry): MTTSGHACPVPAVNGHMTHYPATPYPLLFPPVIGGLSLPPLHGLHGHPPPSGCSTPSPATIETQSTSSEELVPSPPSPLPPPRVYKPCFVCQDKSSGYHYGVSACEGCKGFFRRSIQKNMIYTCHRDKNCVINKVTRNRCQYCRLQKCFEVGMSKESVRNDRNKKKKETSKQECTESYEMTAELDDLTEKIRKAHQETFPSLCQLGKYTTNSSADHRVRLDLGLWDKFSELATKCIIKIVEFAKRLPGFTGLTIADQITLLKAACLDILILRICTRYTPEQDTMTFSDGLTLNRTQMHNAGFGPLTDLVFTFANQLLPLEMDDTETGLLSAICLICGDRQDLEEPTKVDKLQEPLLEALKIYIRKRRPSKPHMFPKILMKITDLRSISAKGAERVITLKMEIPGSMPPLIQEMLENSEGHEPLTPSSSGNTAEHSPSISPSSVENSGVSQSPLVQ
- method_description: Binding affinity towards cRARbeta2 receptor by displacing 0.82 nM 3[H]all-trans-RA
measurement_label: pKi
Scale: pKi equals -log10([C]), with [C] in mol/L.

Prompt: Which pKi is reported for this molecule? CC(/C=C/C1CC1/C=C/C1=CC(C)(C)CCC1(C)C)=C\C(=O)O (configuration not stated)
Completion: 7.96

###

- test_target: Retinoic acid receptor gamma (Homo sapiens)
- Sequence (P13631 whole entry): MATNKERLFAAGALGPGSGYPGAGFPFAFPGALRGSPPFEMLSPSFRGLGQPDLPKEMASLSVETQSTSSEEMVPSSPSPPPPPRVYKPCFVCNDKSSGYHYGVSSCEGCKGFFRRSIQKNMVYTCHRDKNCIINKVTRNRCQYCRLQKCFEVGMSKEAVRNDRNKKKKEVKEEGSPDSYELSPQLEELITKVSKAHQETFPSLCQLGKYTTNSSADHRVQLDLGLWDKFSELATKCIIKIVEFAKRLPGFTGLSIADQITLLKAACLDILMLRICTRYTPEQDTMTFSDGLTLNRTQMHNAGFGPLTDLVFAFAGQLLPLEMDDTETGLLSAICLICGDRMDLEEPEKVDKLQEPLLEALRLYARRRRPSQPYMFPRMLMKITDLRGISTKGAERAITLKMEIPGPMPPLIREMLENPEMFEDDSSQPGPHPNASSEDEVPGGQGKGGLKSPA
measurement_label: pKi
Scale: pKi equals -log10([C]), with [C] in mol/L.

Prompt: Which pKi is reported for this compound? CC(/C=C/C1CC1/C=C/C1=CC(C)(C)CCC1(C)C)=C\C(=O)O (configuration not stated)
Completion: 7.49
